All values here come from PubChem BioAssay (NCI).

run_description: NCI Yeast Anticancer Drug Screen. Data for the sgs1 strain (AID 173);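 also: 0% = growth of vehicle-only control cultures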
protocol_conditions: S. cerevisiae sgs1 mutant, at 11.0 µM, active compounds read high
The panel holds about 79,000 compounds, 15% with a hit somewhere; the sample as a whole holds those more often.
# cutoff 20% applies to growth inhibition; >= gives Fulfilled, < gives Not fulfilled

# compound, label_class
measured = [
    ("COc1ccc(C(OCC2OC(n3cnc4c(=O)n(Cc5ccccc5[N+](=O)[O-])nnc43)C(O)C2O)(c2ccccc2)c2ccc(OC)cc2)cc1 (stereo not given)", "Not fulfilled"),
]

Answer whether growth inhibition of O=C1C[C@H]2[C@H](c3ccc(Br)cc3)[C@H]3C(=O)c4ccccc4NC(=O)[C@@H]3[C@@]2(O)c2ccccc2N1 is greater than or equal to 20%. Fulfilled

Answer whether growth inhibition of CC(CC/C(=N/O)c1ccccc1)(CC/C(=N\O)c1ccccc1)[N+](=O)[O-] (stereo not given) is greater than or equal to 20%. Not fulfilled

Answer whether growth inhibition of O=C(/C(=C/c1ccc(O)cc1)c1ccccc1)c1ccccc1 is greater than or equal to 20%. Not fulfilled

Answer whether growth inhibition of CCN(CC)CC(=O)c1ccc2cc(Cl)c3ccccc3c2c1 is greater than or equal to 20%. Fulfilled

----------
run_description: NCI Yeast Anticancer Drug Screen. Data for the bub3 strain (AID 167)
protocol_conditions: S. cerevisiae bub3 mutant strain, at 11.0 µM, active compounds read high
This is part of a sample that, as a whole, favours compounds with a hit. Of some 79,000 tested, about 15% had one in any assay.
Readings of growth inhibition for the listed compounds
Lab book: enter the figure in %, no units written.

# compound, measured
data = [
    ("N#Cc1nc(Nc2ccc(Cl)cc2)sc1N", 17),
    ("CC1(C)OC(=O)C(=Cc2ccc([N+](=O)[O-])s2)C(=O)O1", -8),
    ("O=C1c2ccccc2-c2ccc(N=Cc3ccccc3)cc21", -1),
    ("CC(CC/C(=N/O)c1ccccc1)(CC/C(=N\\O)c1ccccc1)[N+](=O)[O-] (stereo unspecified)", -9),
    ("CCC(C)COC(=O)Nc1cccc(Cl)c1 (stereo unspecified)", 12),
    ("CCCCCCCC/C=C\\CCCCCCCCN", 14),
    ("O=C(O)c1cc2c(cc1S(=O)(=O)O)C1C(C3C2C2(Cl)C(Cl)=C(Cl)C3(Cl)C2(Cl)Cl)C2(Cl)C(Cl)=C(Cl)C1(Cl)C2(Cl)Cl (stereo unspecified)", -11),
    ("CCN(CC)C(=S)N/N=C(\\C)c1ccccc1O", 36),
    ("CCC(C)(C)c1ccc(Oc2ccccc2)c(N)c1", 95),
    ("O=C1C[C@H]2[C@H](c3ccc(Br)cc3)[C@H]3C(=O)c4ccccc4NC(=O)[C@@H]3[C@@]2(O)c2ccccc2N1", 9),
]

In the following, a different compound is considered.
Form field: reported growth inhibition of CC(C)(Br)C(=O)/C=C/c1ccccc1 -7

----------
Readings of growth inhibition for the listed compounds
run_description: NCI Yeast Anticancer Drug Screen. Data for the mlh1 strain (AID 171);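 also: 0% = growth of vehicle-treated control cultures of the same strain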
protocol_conditions: S. cerevisiae mlh1 strain growth inhibition; at 1.2 µM; active compounds read high
This is part of a sample that, as a whole, favours compounds with a hit. Of some 79,000 tested, about 15% had one in any assay.
Lab book: enter the figure in %, no units written.

# compound, measured
data = [
    ("CN(C)CCNc1ccc2ncn3c4ccc(O)cc4c(=O)c1c23", -23),
    ("CN(C)CCNCCCNc1c2ccccc2nc2cccc([N+](=O)[O-])c12", 5),
    ("Oc1ccc(N=Nc2ccc(Cl)cc2)cc1", 4),
    ("CC12CCC(CC(=O)/C1=C(/Br)I)C2(C)C (stereo unspecified)", 2),
]

Form field: reported growth inhibition of O=[N+]([O-])c1cc(Cl)ccc1S(=O)(=O)c1ccc(Cl)cc1[N+](=O)[O-] -3

Form field: reported growth inhibition of O=C(NNc1ccccc1)C(CCCCNS(=O)(=O)Cc1ccccc1)NS(=O)(=O)Cc1ccccc1 (stereo unspecified) 1

----------
run_description: NCI Yeast Anticancer Drug Screen. Data for the sgs1 mgt1 strain (AID 161);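 also: 0% = growth of cultures given vehicle only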
protocol_conditions: S. cerevisiae sgs1 mgt1 strain, at 50.0 µM, active compounds read high
This is part of a sample that, as a whole, favours compounds with a hit. Of some 79,000 tested, about 15% had one in any assay.
# cutoff 70% applies to growth inhibition; >= gives True, < gives False

# compound, label_class
data = [
    ("O=C1c2ccccc2C(=O)c2c(O)c(NCCNCCO)cc(O)c21", "True"),
]

Answer whether growth inhibition of O=c1[nH]c2c([N+](=O)[O-])cccc2c2ccccc12 is greater than or equal to 70%. True

Answer whether growth inhibition of C1=CCN([B-](c2ccccc2)[C+]2CCCCC2)C=C1 is greater than or equal to 70%. True

Answer whether growth inhibition of CNCC(C)CNC is greater than or equal to 70%. False

Answer whether growth inhibition of O=C1c2ccccc2C(=O)c2sc(Nc3ccccc3Cl)nc21 is greater than or equal to 70%. True

Answer whether growth inhibition of CCOP(=O)(OCC)/C(C#N)=C\c1cccc2ccccc12 is greater than or equal to 70%. True

Answer whether growth inhibition of CCC(=O)C1=C(O)c2cc(OC)ccc2CC1C(=O)OC (configuration not stated) is greater than or equal to 70%. False

Answer whether growth inhibition of Cc1nc2sc3c(c2c(=O)o1)CCCC3 is greater than or equal to 70%. False

Answer whether growth inhibition of Oc1ccc(C2(c3ccc(O)cc3)CCCC2)cc1 is greater than or equal to 70%. True

Answer whether growth inhibition of O=C(c1ccccc1)[C@H]1Nc2ccc(Cl)cc2[C@H]2OCCC[C@@H]12 is greater than or equal to 70%. False

Answer whether growth inhibition of COc1ccc2c(c1)CCCC(Br)C2=O (configuration not stated) is greater than or equal to 70%. True

----------
run_description: NCI Yeast Anticancer Drug Screen. Data for the bub3 strain (AID 167)
protocol_conditions: S. cerevisiae bub3 mutant strain, at 11.0 µM, active compounds read high
The panel holds about 79,000 compounds, 15% with a hit somewhere; the sample as a whole holds those more often.
outcome_measure: growth inhibition (%)
Lab book: enter the figure in %, no units written.

# compound, outcome_measure, scale_unit, measured
measured = [
    ("CCOC(=O)/C(=C\\c1ccc(F)cc1)C(C)=O", "growth inhibition", "%", 91),
    ("c1ccc2c(c1)ccn2CCc1c[nH]c2ccccc12", "growth inhibition", "%", 39),
    ("C1=CCN([B-](c2ccccc2)[C+]2CCCCC2)C=C1", "growth inhibition", "%", 4),
    ("Cc1cccc2c(NCCCN(C)C)c3c([N+](=O)[O-])ccc(C)c3nc12", "growth inhibition", "%", 16),
    ("CNC(=O)OCc1c(COC(=O)NC)c(C)n(-c2ccc(Br)cc2)c1C", "growth inhibition", "%", -18),
]

Form field: reported growth inhibition of O=S(=O)(NC1CCCC(c2ccccc2)C1)c1ccccc1 (configuration not stated) 0

Form field: reported growth inhibition of O=C1C(/C=C/c2ccc(Cl)cc2)=NNC2N1N=C1NC(=O)C3(NN12)c1ccccc1-c1ccccc13 (configuration not stated) 0

Form field: reported growth inhibition of Fc1cc(F)c(F)c(S)c1F 26

Form field: reported growth inhibition of CCc1c(Cl)c(C)c(Cl)c(O)c1Cl 5

Form field: reported growth inhibition of NC(=O)NC1C(c2ccccc2)=C1c1ccccc1 -4

Form field: reported growth inhibition of c1c[nH]c(CN2CCN(Cc3ncc[nH]3)CC2)n1 97

Form field: reported growth inhibition of O=C(Nc1cccs1)c1ccccc1 -3

Form field: reported growth inhibition of CC/C(=C(\c1ccccc1)c1ccc(OCC[N+](C)(C)C)cc1)c1ccccc1 99

Form field: reported growth inhibition of CC1(C)CC(=O)C(/C=N/c2nc(-c3ccc(Br)cc3)cs2)=C(O)C1 24

----------
run_description: NCI Yeast Anticancer Drug Screen. Data for the wt2 strain (AID 169);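 also: 0% = growth of vehicle-treated yeast cultures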
protocol_conditions: S. cerevisiae wt2 strain growth inhibition; at 100.0 µM
Experimental: Growth inhibition of yeast strains with defined genetic alterations is measured as a screen for potential anti-cancer activity. Selected strains with alterations in DNA damage repair or cell cycle control were exposed to compounds and growth inhibition was measured relative to vehicle treated controls. The strain used in this assay is wt2
Compounds without any hit were thinned out: in the full panel of roughly 79,000, 15% have a hit. Activity calls are given as the source filed them. No stated cut-off is given here; in the data, active means growth inhibition above about 70%; inactive means the rest.
Thanks in advance; please answer with one of these: T (active), F (inactive)

Record excerpt, results attached:
# molecule, label_class
records = [
    ("O=C1C=C(NCCc2cc(Br)c(O)c(Br)c2)C(=O)c2ncccc21", "T"),
    ("CN(C)CCNC(=Cc1ccc2ccccc2[n+]1C)NCCN(C)C", "F"),
]

Per the assay record, what outcome was assigned to O=[N+]([O-])[O][Sn]([O][Sn]([O][N+](=O)[O-])([c]1ccccc1)[c]1ccccc1)([c]1ccccc1)[c]1ccccc1 ? F

Per the assay record, what outcome was assigned to CCCCCCCCCCCNC=O ? T

Per the assay record, what outcome was assigned to COc1ccc2nc3cccc([N+](=O)[O-])c3c(NCCNCCO)c2c1 ? T

Per the assay record, what outcome was assigned to C/C(=N/NC(=S)Nc1ccccc1C)c1ccccn1 ? F

Per the assay record, what outcome was assigned to COc1ccc(C(C)c2cc3c(cc2OC(C)O)OCO3)cc1 (stereo not given) ? F

Per the assay record, what outcome was assigned to COC1/C=C\C=C(/C)C(=O)NC2=CC(=O)C(=O)C(=C2O)CC(C)CC(OC)C(O)C(C)/C=C(\C)C1OC(N)=O (stereo not given) ? T

Per the assay record, what outcome was assigned to O=S(=O)(c1cccc(C(F)(F)F)c1)N1c2ccccc2-n2cccc2C1c1cccnc1 (stereo not given) ? T

Per the assay record, what outcome was assigned to O=C(Cc1ccccc1)NNc1nc(NNC(=O)c2ccncc2)nc(Nc2ccc([N+](=O)[O-])cc2)n1 ? F

Per the assay record, what outcome was assigned to CCC(=O)C1=C(O)c2cc(OC)ccc2CC1C(=O)OC (stereo not given) ? F

Per the assay record, what outcome was assigned to O=[N+]([O-])c1ccc2[nH]c3c(-c4ccccc4)nccc3c2c1 ? T
